Test system: Fibroblast
assay.text: Multiplex assay against human fibroblast
Type: toxicity, cell-based
cond: 24 h, 1 µM, compound concentration 1 uM, replicate 1
So basically, if Population Pyknosed Nuclei (%) comes in under 20% it's Yes, and if it's 20% or more it's No.

CC(C)[C@H](CO)Nc1nc(Nc2cccc(Cl)c2)c2ncn(C(C)C)c2n1: Yes
C[C@@H](Oc1cc(-n2cnc3ccc(CN4CCN(C)CC4)cc32)sc1C(N)=O)c1ccccc1C(F)(F)F: No
Cc1c(Nc2ccc(S(=O)(=O)N3CCN(C)CC3)cc2F)nc2ccc(Nc3cnn(C4CC4)c3)cn2c1=O: Yes
CC(/C=C1\SC(=S)N(CCCC(=O)Nc2ccc(C(=O)O)c(O)c2)C1=O)=C\c1ccccc1: No

Challenge: Bench note: check whether `CNC(=O)Nc1ccc2c(c1)CC[C@@]21OC(=O)N(CC(=O)N(Cc2ccc(F)cc2)[C@@H](C)C(F)(F)F)C1=O` shows Population Pyknosed Nuclei (%) below 20%
Response given: Yes

Challenge: Bench note: check whether `CC[C@H](Nc1ncnc2[nH]cnc12)c1nc2cccc(F)c2c(=O)n1-c1ccccc1` shows Population Pyknosed Nuclei (%) below 20%
Response given: Yes

Challenge: Bench note: check whether CC(Cc1ccc(O)c(O)c1)C(C)Cc1ccc(O)c(O)c1 (stereo not drawn) [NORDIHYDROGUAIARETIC ACID] shows Population Pyknosed Nuclei (%) below 20%
Response given: Yes

----------
System: HEK-293T
assay.text: Multiplex assay against HEK293T
Type: toxicity, cell-based
cond: human, 48 h, 1 µM, compound concentration 1 uM, replicate 2
measured.attribute: Population Mitochondria Different-Phenotype (%)
Give me the value, and tack the unit on after it.

Record excerpt, results attached:
CCCCCNC(=N)N/N=C/c1c[nH]c2ccc(OC)cc12.O=C(O)/C=C\C(=O)O [TEGASEROD MALEATE]: 21%
N#CCNC(=O)c1ccc(-c2ccnc(Nc3ccc(N4CCOCC4)cc3)n2)cc1 [MOMELOTINIB]: 5%
CN(c1cc(C(F)(F)F)nc(OCCC(=O)O)n1)c1cccc2c1CCC2: 4%
CC(C)[C@H](CO)Nc1nc(Nc2cccc(Cl)c2)c2ncn(C(C)C)c2n1 [PURVALANOLA]: 12%
Oc1cccc(-c2nc(N3CCOCC3)c3oc4ncccc4c3n2)c1 [PI-103]: 63%
N#Cc1cccc(C(=O)Nc2cc(-c3ccccc3)nn2-c2ccccc2)c1: 4%
Cc1ccc(S(=O)(=O)NC2c3ccccc3Oc3ccccc32)cc1: 3%
CN1C(=O)[C@@H](NC(=O)c2cc3ccccc3[nH]2)N=C(c2ccccc2)c2ccccc21 [DEVAZEPIDE]: 11%

Attention now shifts to the item below.
Challenge: Consider the compound `CCCCN(CC)c1nc(C)nc2c1c(C)cn2-c1c(C)cc(C)cc1C.Cl` and give its measured Population Mitochondria Different-Phenotype (%).
Response given: 8%

----------
Population Hoechst High Intensity Objects (%) by entry:
Tested on: HEK-293T
assay.text: Multiplex assay against HEK293T
Type: toxicity, cell-based
cond: human, 24 h, 10 µM, compound concentration 10 uM, replicate 1
# output: bare number, implied unit %

CC[C@@]1(O)C(=O)OCc2c1cc1n(c2=O)Cc2cc3ccccc3nc2-1 [CAMPTOTHECIN]: 8
NC(=O)c1ccc2nc(-c3ccc(C4(N)CCC4)cc3)c(-c3ccccc3)n2n1 [BAY-1125976]: 11
CCCCN(CC)c1nc(C)nc2c1c(C)cn2-c1c(C)cc(C)cc1C.Cl: 9

Challenge: Consider the compound `N#Cc1cccc(C(=O)Nc2cc(-c3ccccc3)nn2-c2ccccc2)c1` and give its measured Population Hoechst High Intensity Objects (%).
Response given: 15

Challenge: Consider the compound `Cl.NC[C@@H]1O[C@H](C23CC4CC(CC(C4)C2)C3)Cc2c1ccc(O)c2O` and give its measured Population Hoechst High Intensity Objects (%).
Response given: 13

Challenge: Consider the compound CC[C@H](Nc1ncnc2[nH]cnc12)c1nc2cccc(F)c2c(=O)n1-c1ccccc1 [IDELALISIB] and give its measured Population Hoechst High Intensity Objects (%).
Response given: 5

Challenge: Consider the compound `C=CC(=O)Nc1cc(-n2c(=O)ccc3cnc4ccc(-c5ccc(NS(C)(=O)=O)cc5)cc4c32)ccc1C` and give its measured Population Hoechst High Intensity Objects (%).
Response given: 13

Challenge: Consider the compound CC(Cc1ccc(O)c(O)c1)C(C)Cc1ccc(O)c(O)c1 (configuration not stated) [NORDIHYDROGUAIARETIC ACID] and give its measured Population Hoechst High Intensity Objects (%).
Response given: 7

Challenge: Consider the compound `CC(C)c1cc(Nc2nc(N3CCC[C@H](N)C3)ncc2C(N)=O)cc(C(C)C)n1` and give its measured Population Hoechst High Intensity Objects (%).
Response given: 22

Challenge: Consider the compound CC[C@@H]1C(=O)N(C)c2cnc(Nc3ccc(C(=O)NC4CCN(C)CC4)cc3OC)nc2N1C1CCCC1 [BI-2536] and give its measured Population Hoechst High Intensity Objects (%).
Response given: 12

The measurements presented in this section are drawn from ChEMBL document CHEMBL4689842.
